Structures can show the parent of a compound that is named as a salt.
Experimental endpoint: melting point

In the examples that follow, each entry is paired with its recorded melting point.
Molecule | melting point
Cc1ccccc1CN1CCc2ccc(C(=O)CCCC3CCN(Cc4ccccc4C(=O)N4CCN(C)CC4)CC3)cc2CC1 (as salt: hydrochloride) [Example 313, Trihydrochloride] | 186 to 193 °C (dec.)
COc1ccc(CN2CCc3ccc(C(=O)CCC4CCN(Cc5ccc(C(C)(C)C)cc5)CC4)cc3CC2)cc1 (as salt: hydrochloride) [Example 93, Dihydrochloride] | 241 to 244 °C (dec.)
Cl.Cl.O=C(CCCC1CCN(Cc2ccc(F)cc2)CC1)c1ccc2c(c1)CCN(Cc1ccccc1)CC2 | 226 to 229 °C (dec.)

Give the measured melting point of Cc1ccccc1CN1CCC(CCC(=O)c2ccc3c(c2)CN(Cc2ccc(F)cc2)CCO3)CC1 (as salt: hydrochloride) [Example 83, Dihydrochloride] .
216 to 219 °C

Likewise for Cc1ccccc1CN1CCc2ccc(C(=O)CCCC3CCN(Cc4cccc(Cl)c4)CC3)cc2CC1 (as salt: hydrochloride) [Example 130, Dihydrochloride] ?
180 to 183 °C

Likewise for COc1cccc(CN2CCC(CCCC(=O)c3ccc4c(c3)CCN(Cc3ccccc3)CC4)CC2)c1 (as salt: hydrochloride) [Example 156, Dihydrochloride] ?
215 to 218 °C (dec.)

Likewise for Cc1cccc(CN2CCC(CCC(=O)c3ccc4c(c3)CN(Cc3ccccc3)CCO4)CC2)c1 (as salt: hydrochloride) [Example 4, Dihydrochloride] ?
212 to 214 °C

Likewise for O=C(CCCC1CCN(Cc2cccc(F)c2)CC1)c1ccc2c(c1)CCN(Cc1ccccc1)CC2 (as salt: hydrochloride) ?
245 to 248 °C (dec.)

Likewise for O=C(CCC1CCN(Cc2ccc(Cl)cc2)CC1)c1ccc2c(c1)CCN(Cc1ccc(F)cc1)CC2 (as salt: hydrochloride) [Example 41, Dihydrochloride] ?
219 to 222 °C (dec.)

Likewise for O=C(CCC1CCNCC1)c1ccc2c(c1)CCN(Cc1ccccc1)CC2 ?
134 to 137 °C

Likewise for CC(C)(C)c1ccc(CN2CCC(CCC(=O)c3ccc4c(c3)CN(Cc3ccc(F)cc3)CCO4)CC2)cc1 (as salt: hydrochloride) [Example 108, Dihydrochloride] ?
240 to 243 °C

Likewise for CC(=O)N1CCC(CCC(=O)c2ccc3c(c2)CNc2ccccc2CC3)CC1 ?
153 to 155 °C

Likewise for N#Cc1ccccc1CN1CCc2ccc(C(=O)CCCC3CCN(Cc4ccccc4Cl)CC3)cc2CC1 ?
103 to 104 °C

====

Structures can show the parent of a compound that is named as a salt.
Experimental endpoint: melting point

Compound | melting point
Cc1ccccc1CN1CCc2ccc(C(=O)CCCC3CCN(Cc4ccccc4)CC3)cc2CC1 (as salt: hydrochloride) [Example 129, Dihydrochloride] | 191 to 194 °C

Give the measured melting point of CC(=O)Nc1cccc(CN2CCC(CCCC(=O)c3ccc4c(c3)CCN(Cc3ccccc3)CC4)CC2)c1 (as salt: hydrochloride) [Example 179, Dihydrochloride] .
179 to 187 °C

Likewise for COc1ccc(CN2CCc3ccc(C(=O)CCC4CCN(Cc5ccc(-c6ccccc6)cc5)CC4)cc3CC2)cc1 (as salt: hydrochloride) ?
220 to 225 °C (dec.)

====

Structures can show the parent of a compound that is named as a salt.
Experimental endpoint: melting point

Molecule | melting point
O=C(CCC1CCN(Cc2ccccc2)CC1)c1ccc2c(c1)CCN(Cc1ccc(F)cc1)CC2 (as salt: hydrochloride) | 217 to 220 °C
O=C(CCC1CCNCC1)c1ccc2c(c1)CN(Cc1ccc(F)cc1)CCO2 (as salt: hydrochloride) [Example 78, Dihydrochloride] | 173 to 174 °C
O=C(CCCC1CCNCC1)c1ccc2c(c1)CCN(Cc1ccccc1)CC2 (as salt: hydrochloride) [Example 26, Dihydrochloride] | 201 to 203 °C
Cc1ccccc1CN1CCc2ccc(C(=O)CCCC3CCN(Cc4ccccc4C)CC3)cc2CC1 (as salt: hydrochloride) [Example 127, Dihydrochloride] | 183 to 186 °C
CCOC(=O)C(C)(C)c1cccc(CN2CCC(CCCC(=O)c3ccc4c(c3)CCN(Cc3ccccc3)CC4)CC2)c1 (as salt: hydrochloride) [Example 153, Dihydrochloride] | 146 to 148 °C

Attention now turns to another entry.
Give the measured melting point of COC(=O)c1ccc(CN2CCC(CCCC(=O)c3ccc4c(c3)CCN(Cc3ccccc3)CC4)CC2)cc1 (as salt: hydrochloride) .
239 to 244 °C (dec.)

====

Structures can show the parent of a compound that is named as a salt.
Experimental endpoint: melting point

In the examples that follow, each entry is paired with its recorded melting point.
Molecule | Observed result
CCOC(=O)C1(C(=O)OCC)Oc2ccc(CN3CCC(CCC(=O)c4ccc5c(c4)CN(Cc4ccc(F)cc4)CCO5)CC3)cc2O1 (as salt: hydrochloride) | 199 °C (dec.)
O=C(CCCC1CCN(Cc2ccccc2Cl)CC1)c1ccc2c(c1)CCN(Cc1ccccc1)CC2 (as salt: hydrochloride) [Example 178, Dihydrochloride] | 226 to 229 °C (dec.)
CNC(=O)Nc1ccccc1CN1CCC(CCCC(=O)c2ccc3c(c2)CCN(Cc2ccccc2C)CC3)CC1 (as salt: hydrochloride) | 176 to 189 °C (dec.)

Give the measured melting point of O=C(CCC1CCN(Cc2ccc(F)cc2)CC1)c1ccc2c(c1)CN(Cc1ccccc1)CCO2 (as salt: hydrochloride) [Example 8, Dihydrochloride] .
212 to 214 °C

Likewise for Cl.Cl.O=C(CC1CCN(Cc2ccc(F)cc2)CC1)c1ccc2c(c1)CCN(Cc1ccccc1)CC2 ?
243 to 247 °C (dec.)

====

Counter-ions that a name gives are not always drawn.
Quick reference for melting point among some molecules

Molecule | melting point
O=C(CCC1CCN(Cc2cccc(C(F)(F)F)c2)CC1)c1ccc2c(c1)CN(Cc1ccc(F)cc1)CCO2 (as salt: hydrochloride) | 225 to 227 °C
COc1ccc(CN2CCc3ccc(C(=O)CCC4CCN(C(=O)c5ccc(-c6ccccc6)cc5)CC4)cc3CC2)cc1.Cl | 212 to 215 °C

Give the measured melting point of O=C(CCC1CCNCC1)c1ccc2c(c1)CCN(Cc1ccc(F)cc1)CC2 (as salt: hydrochloride) .
225 to 227 °C (dec.)

Likewise for O=C(CCC1CCN(Cc2cccc(C(F)(F)F)c2)CC1)c1ccc2c(c1)CN(Cc1ccc(F)cc1)CCC2 (as salt: hydrochloride) ?
197 to 199 °C

Likewise for CN1CCC(CCC(=O)c2ccc3c(c2)CCN(Cc2ccc(F)cc2)CC3)CC1 (as salt: hydrochloride) [Example 42, Dihydrochloride] ?
213 to 216 °C (dec.)
